Biological target: HDAC3/NCOR1 complex (Homo sapiens)
Sequence (O15379 whole entry): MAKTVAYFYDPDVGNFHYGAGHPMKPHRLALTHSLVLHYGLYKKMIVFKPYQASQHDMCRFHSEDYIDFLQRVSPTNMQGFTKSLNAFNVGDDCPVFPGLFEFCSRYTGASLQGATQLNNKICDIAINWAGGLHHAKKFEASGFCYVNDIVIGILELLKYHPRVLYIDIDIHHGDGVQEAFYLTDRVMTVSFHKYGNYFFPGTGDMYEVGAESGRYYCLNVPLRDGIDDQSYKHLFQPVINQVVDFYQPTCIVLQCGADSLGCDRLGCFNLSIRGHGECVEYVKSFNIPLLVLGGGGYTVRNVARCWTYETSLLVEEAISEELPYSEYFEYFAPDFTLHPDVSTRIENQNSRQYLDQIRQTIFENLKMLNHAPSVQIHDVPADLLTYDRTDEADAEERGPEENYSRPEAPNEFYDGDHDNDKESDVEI
Sequence (O75376 395-489 partner limits assumed): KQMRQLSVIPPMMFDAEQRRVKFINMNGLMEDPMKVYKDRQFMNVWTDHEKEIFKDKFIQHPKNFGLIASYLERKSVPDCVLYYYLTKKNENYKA
Experiment: HDAC3 enzyme assay (fluorescent activity kit, HDAC3/NCOR1 complex);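 note: in vitro enzyme activity of HDAC3 complexed with NCOR1, fluorescence read at 360 nm excitation and 460 nm emission, inhibition relative to uninhibited control wells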
Format: biochemical
Settings: class I; means of at least three experiments
Endpoint Name: pIC50
In textbook form, pIC50 equals minus log to base ten of the concentration in mol/L.

(Q) Recorded pIC50 for Cc1ccc(C(=O)NCC(=O)NCCC(=O)Nc2ccccc2N)cc1 [compound 1, reference compound] , please?
(A) 4.72

(Q) // next record Nc1ccccc1NC(=O)c1ccc(-c2cn(CCc3cccc([N+](=O)[O-])c3)nn2)s1
(A) 6.59

---

Protein target, amino acids: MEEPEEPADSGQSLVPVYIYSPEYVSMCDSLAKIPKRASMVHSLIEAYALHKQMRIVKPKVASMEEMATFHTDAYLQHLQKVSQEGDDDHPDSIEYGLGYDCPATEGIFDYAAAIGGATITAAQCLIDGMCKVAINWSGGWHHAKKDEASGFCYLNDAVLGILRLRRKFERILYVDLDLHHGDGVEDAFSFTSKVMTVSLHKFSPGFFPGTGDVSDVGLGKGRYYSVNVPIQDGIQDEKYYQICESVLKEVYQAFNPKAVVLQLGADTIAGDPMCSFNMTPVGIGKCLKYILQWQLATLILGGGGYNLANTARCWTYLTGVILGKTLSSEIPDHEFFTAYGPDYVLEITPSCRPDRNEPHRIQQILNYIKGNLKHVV
For each record, write down the corresponding IC50.

(Q) Recorded IC50 for Nc1ccccc1NC(=O)c1ccc(-c2cn(CCc3cccc([N+](=O)[O-])c3)nn2)s1 , please?
(A) > 100 µM

(Q) // next record Cc1ccc(C(=O)NCC(=O)NCCC(=O)Nc2ccccc2N)cc1 [compound 1, reference compound]
(A) > 100 µM
